# credit: ChEMBL document CHEMBL1201861

- Test system: KYSE-520 cell line
- protocol details: cells
- Type: functional, cell-based, Homo sapiens
- condition info: Homo sapiens, KYSE-520
- Description: SANGER: Inhibition of human KYSE-520 cell growth in a cell viability assay.
pIC50: −log10 of the molar value.
recorded metric: pIC50

Solved cases below.
compound: CC(C)CCN1c2nc(Nc3cc(F)c(O)c(F)c3)ncc2N(C)C(=O)C1C (stereo not drawn)
target or test system: KYSE-520 cell line
pIC50: < 5.30

compound: CCN(CC)CCCCNc1ncc2cc(-c3cc(OC)cc(OC)c3)c(NC(=O)NC(C)(C)C)nc2n1
target or test system: KYSE-520 cell line;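 further: growth inhibition of human KYSE-520 cells, read out with a viability assay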
pIC50: < 5.70

Request the reported pIC50 associated with N#Cc1c(O)c2c(-c3ccc(-c4ccccc4O)cc3)csc2[nH]c1=O
< 5.99
